Value source: patent US10597674B2

System: E. coli cells expressing an HPPD polypeptide
Test: Brown color bioassay in liquid culture, residual brown color formation (BCF), OD440 after 96 hours
Format: cell-based
Details: brown color formation with Cmpd. 1 (1000 μM) relative to without, after 96 hours
Property name: Residual BCF OD440nm [%] (%)

>>> test_value("86 (protein, mutant HPPD polypeptide) MADLYENPMGLMGFEFIEFASPTPGTLEPIFEIMGFTKVATHRSKNVHLYRQGEINLILNNEPNSIASYFAAEHGPSVCGMAFRVKDSQKAYNRALELGAQPIHIDTGPMELNLPAIKGIGGAPLYLIDRFGEGSSIYDIDFVYLEGVERNPVGAGLKVIDHLTHNVYRGRMVYWANFYEKLFNFREARYFDIKGEYTGLTSKAMSAPDGMIRIPLNEESSKGAGQIEEFLMQFNGEGIQHVAFLTDDLVKTWDALKKIGMRFMTAPGDEYYEMLEGRLPDHGEPVDQLQARGILLDGSSVEGDKRLLLQIFSETLMGPVFFEFIQRKGDDGFGPDSFKQLFESVERDQVRRGVLTAD")
74
>>> test_value("29 (protein, mutant HPPD polypeptide) MADLYENPMGLMGFEFIEFASPTPGTLEPIFEIMGFTKVATHRSKNVHLYRQGEINLILNNEPNSIASYFAAEHGPSVCGMAFRVKDSQKAYNRALELGAQPIHIDTGPMELNLPAIKGIGGAPLYLIDRFGEGSSIYDIDFVYLEGVERNPVGAGLKVIDHLTHNVYRGRMVYWANFYEKLFNFREARYFDIKGEYTGLTSKAMSAPDGMIRIPLNEESSKGAGQIEEFLMQFNGEGIQHVAFLTDDLVKTWDALKKIGMRFMTAPSDSYYEMLEGRLPDHGEPVDQLQARGILLDGSSVEGDKRLLLQIFSETLMGPVFFEFIQRKGDDGFGPHSFKVLFESVERDQVRRGVLTAD")
42
>>> test_value("7 (protein, mutant HPPD polypeptide) MADLYENPMGLMGFEFIEFASPTPGTLEPIFEIMGFTKVATHRSKNVHLYRQGEINLILNNEPNSIASYFAAEHGPSVCGMAFRVKDSQKAYNRALELGAQPIHIDTGPMELNLPAIKGIGGAPLYLIDRFGEGSSIYDIDFVYLEGVERNPVGAGLKVIDHLTHNVYRGRMVYWANFYEKLFNFREARYFDIKGEYTGLTSKAMSAPDGMIRIPLNEESSKGAGQIEEFLMQFNGEGIQHVAFLTDDLVKTWDALKKIGMRFMTAPPDTYYEMLEGRLPDHGEPVDQLQARGILLDGSSVEGDKRLLLQIFSETLMGPVFFEFIQRKGDDGFGPDSFKALFESIERDQVRRGVLTAD")
40
>>> test_value("88 (protein, mutant HPPD polypeptide) MADLYENPMGLMGFEFIEFASPTPGTLEPIFEIMGFTKVATHRSKNVHLYRQGEINLILNNEPNSIASYFAAEHGPSVCGMAFRVKDSQKAYNRALELGAQPIHIDTGPMELNLPAIKGIGGAPLYLIDRFGEGSSIYDIDFVYLEGVERNPVGAGLKVIDHLTHNVYRGRMVYWANFYEKLFNFREARYFDIKGEYTGLTSKAMSAPDGMIRIPLNEESSKGAGQIEEFLMQFNGEGIQHVAFLTDDLVKTWDALKKIGMRFMTAPGDEYYEMLEGRLPDHGEPVDQLQARGILLDGSSVEGDKRLLLQIFSETLMGPVFFEFIQRKGDDGFGPDSFKVLFESIERDQVRRGVLTAD")
77
